Target: human leukocyte elastase (Homo sapiens)
Assay: elastase inhibition using human leukocyte elastase (kon and Ki*)
Assay type: biochemical
Conditions: Ki* = koff/kon; read-out: Elastase Ki *
Assign labels as follows, please: True for Ki below 100 nM; False for Ki equal to or exceeding 100 nM.

CCOC(=O)Cn1nnnc1SCN1C(=O)c2ccccc2S1(=O)=O [Example 30AP]
True
O=C1c2ccccc2S(=O)(=O)N1C[S+]([O-])c1nnnn1-c1ccccc1 (stereo not drawn) [Example 10]
True
O=C1c2ccccc2S(=O)(=O)N1CSc1nnc(S)s1 [Example 30AH]
True

Would you kindly verify if Ki of COc1cccc2c1C(=O)N(CCl)S2(=O)=O [Example 22A, 2-chloromethyl-4-methoxysaccharin] is strictly less than 100 nM?
True

Would you kindly verify if Ki of O=C1c2ccccc2C(=O)N1CN1C(=O)c2ccccc2S1(=O)=O [Example 30BF] is strictly less than 100 nM?
False

Would you kindly verify if Ki of CC(C)(C)CC(C)(C)c1ccc2c(c1)C(=O)N(CSc1nnnn1-c1ccccc1)S2(=O)=O [Example 30A] is strictly less than 100 nM?
False

Would you kindly verify if Ki of CC(C)c1cccc2c1C(=O)N(CSc1nnnn1CCN1CCOCC1)S2(=O)=O [Example 30BI] is strictly less than 100 nM?
True

Would you kindly verify if Ki of O=C1c2ccccc2S(=O)(=O)N1CS(=O)(=O)c1ncccn1 [Example 14, 2-(2-pyrimidylsulfonylmethyl)saccharin] is strictly less than 100 nM?
False

---

Below, each entry is listed with its recorded pKi.
Biological target: human leukocyte elastase (Homo sapiens)
Sequence (P08246 30-267): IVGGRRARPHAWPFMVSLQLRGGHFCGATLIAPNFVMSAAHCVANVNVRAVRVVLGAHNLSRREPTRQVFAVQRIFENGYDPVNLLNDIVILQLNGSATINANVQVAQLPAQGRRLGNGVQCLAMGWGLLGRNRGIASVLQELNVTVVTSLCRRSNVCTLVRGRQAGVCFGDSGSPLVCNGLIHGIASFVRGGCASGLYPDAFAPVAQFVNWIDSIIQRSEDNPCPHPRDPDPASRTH
Experiment: elastase inhibition using human leukocyte elastase (kon and Ki*)
Type: biochemical
Settings: Ki* = koff/kon; read-out: Elastase Ki *
Would you please state pKi, meaning minus log10 of the concentration in mol/L, as a bare number?

Recorded results for 8 compounds are shown here.
CCc1cccc2c1C(=O)N(CCl)S2(=O)=O [Example 28]
8.60
O=C1c2ccccc2S(=O)(=O)N1/C=C/CSc1nnnn1-c1ccccc1 [Example 38]
8.70
Cc1nnc(SCN2C(=O)c3ccccc3S2(=O)=O)s1 [Example 30AB]
7.64
CC(=O)OCN1C(=O)c2c(Cl)cccc2S1(=O)=O [Example 2, 2-acetoxymethyl-4-chlorosaccharin]
7.35
O=C1c2cccc(Cl)c2S(=O)(=O)N1CCl [Example 22D]
8.89
COC(=O)c1cn(-c2ccccc2)c(SCN2C(=O)c3ccccc3S2(=O)=O)n1 [Example 30AR]
6.82
CC(C)c1cccc2c1C(=O)N(CCl)S2(=O)=O [Example 22E, 2-chloromethyl-4-isopropylsaccharin]
7.04
CCC(C)c1cccc2c1C(=O)N(CCl)S2(=O)=O (stereo not drawn) [Example 22B, 2-chloromethyl-4-sec.-butylsaccharin]
7.05

Entry COC(=O)C(Sc1nnnn1-c1ccccc1)N1C(=O)c2ccccc2S1(=O)=O (stereo not drawn) [Example 17] : reported pKi = ?
6.57

All figures here come from patent US5874432A.
